Assay: ATG_MRE_CIS: Attagene CIS-FACTORIAL HepG2 Assay for human Metal Responsive Element (MRE) (AID 2282954)
Settings: HepG2 MRE cis-reporter transcription, Attagene multiplex; actives raise or lower the signal
Active and inactive are the calls of the source. The calls were made as follows: active = hit-call score of the fitted dose curve at least 0.9, where 1 is the maximum; inactive = score below 0.9.
Outcomes: active, inactive

[
  {
    "compound string": "O=C(OCCCCCCOC(=O)c1ccccc1)c1ccccc1",
    "cat": "inactive"
  },
  {
    "compound string": "CCCCCCCC[Si](OCC)(OCC)OCC",
    "cat": "inactive"
  },
  {
    "compound string": "c1ccc2n[nH]nc2c1",
    "cat": "inactive"
  },
  {
    "compound string": "O=CCCCC=O",
    "cat": "inactive"
  },
  {
    "compound string": "CCN(Cc1cccc(S(=O)(=O)O)c1)c1ccc(C(=C2C=CC(=[N+](CC)Cc3cccc(S(=O)(=O)O)c3)C=C2)c2ccccc2S(=O)(=O)[O-])cc1",
    "cat": "inactive"
  },
  {
    "compound string": "COc1ccc2cc(S(=O)(=O)N[C@H](CC(=O)N[C@H](Cc3ccc(CN4[C@H](C)CCC[C@@H]4C)cc3)C(=O)N(C)C(C)C)c3ccc4c(c3)OCO4)ccc2c1",
    "cat": "active"
  },
  {
    "compound string": "O=c1ccc2ccccc2o1",
    "cat": "inactive"
  },
  {
    "compound string": "CC1(C)NC(=O)N(c2ccc([N+](=O)[O-])c(C(F)(F)F)c2)C1=O",
    "cat": "inactive"
  },
  {
    "compound string": "CC(=O)N1CCN(c2ccc(OC[C@H]3CO[C@](Cn4ccnc4)(c4ccc(Cl)cc4Cl)O3)cc2)CC1",
    "cat": "active"
  },
  {
    "compound string": "CC(C)(O)c1ccc(CNC(=O)c2cccnc2Oc2ccc3nonc3c2)cc1",
    "cat": "inactive"
  },
  {
    "compound string": "O=C(O)Cn1c(=O)n(Cc2ccc(Br)cc2F)c(=O)c2ccc(Cl)cc21",
    "cat": "inactive"
  },
  {
    "compound string": "Cc1cn([C@H]2C[C@H](N=[N+]=[N-])[C@@H](CO)O2)c(=O)[nH]c1=O",
    "cat": "inactive"
  }
]

###

Read-out: growth arrest and DNA damage 45 (GADD45G), GADD45G (gene 10912)
Assay: LTEA_HepaRG_GADD45G: Life Technologies and Expression Analysis (LTEA) Assay for growth arrest and DNA damage 45 (GADD45G) using HepaRG (AID 2283499)
Settings: mRNA level, 48 h; actives raise or lower the signal
The source made the active and inactive calls. The calls were made as follows: active = hit-call score of the fitted dose curve at least 0.9, where 1 is the maximum; inactive = score below 0.9.
Outcomes: yes (1) (active), no (0) (inactive)

[
  {
    "compound string": "O=c1[nH]sc2ccccc12",
    "cat": "no (0)"
  },
  {
    "compound string": "CN1C(=O)CC[C@H]1c1cccnc1",
    "cat": "no (0)"
  },
  {
    "compound string": "CN(C)C(=O)C1(N2CCCCC2)CCN(CC[C@@]2(c3ccc(Cl)c(Cl)c3)CN(C(=O)c3ccccc3)CCO2)CC1",
    "cat": "yes (1)"
  },
  {
    "compound string": "CC(C)(O)c1ccc(CNC(=O)c2cccnc2Oc2ccc3nonc3c2)cc1",
    "cat": "no (0)"
  },
  {
    "compound string": "Cc1ncc(CO)c(CO)c1O",
    "cat": "no (0)"
  },
  {
    "compound string": "O=C1c2ccccc2C(=O)N1CCc1noc(-c2ccc(CN3CCCCCC3)s2)n1",
    "cat": "no (0)"
  },
  {
    "compound string": "c1ccc2n[nH]nc2c1",
    "cat": "no (0)"
  },
  {
    "compound string": "CC(C)(c1cc(Br)c(O)c(Br)c1)c1cc(Br)c(O)c(Br)c1",
    "cat": "no (0)"
  },
  {
    "compound string": "CCCCCCCCCC(=O)O",
    "cat": "no (0)"
  },
  {
    "compound string": "Cc1cc(F)ccc1-c1cc(N2CC[C@@H](O)[C@H]2CO)ncc1N(C)C(=O)C(C)(C)c1cc(C(F)(F)F)cc(C(F)(F)F)c1",
    "cat": "yes (1)"
  },
  {
    "compound string": "COc1cc(C(=O)NC2CCN(C)CC2)ccc1Nc1ncc2c(n1)N(C1CCCC1)CC(F)(F)C(=O)N2C",
    "cat": "yes (1)"
  }
]

###

Target: human Sirtuin 3 (SIRT3), SIRT3 (gene 23410) (UniProt Q9NTG7)
Sequence (Q9NTG7 whole entry, looked up): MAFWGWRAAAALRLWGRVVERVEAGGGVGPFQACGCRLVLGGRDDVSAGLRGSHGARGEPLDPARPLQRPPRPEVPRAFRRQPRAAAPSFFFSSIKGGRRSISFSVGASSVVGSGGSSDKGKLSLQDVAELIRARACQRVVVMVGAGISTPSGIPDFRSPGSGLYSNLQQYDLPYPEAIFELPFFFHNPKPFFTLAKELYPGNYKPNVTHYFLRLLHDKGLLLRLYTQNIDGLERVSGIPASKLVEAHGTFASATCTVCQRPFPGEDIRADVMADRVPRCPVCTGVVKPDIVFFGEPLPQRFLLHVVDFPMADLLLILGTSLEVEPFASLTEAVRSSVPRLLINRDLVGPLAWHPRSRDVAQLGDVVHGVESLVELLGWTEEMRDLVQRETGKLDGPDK
Assay: NVS_ENZ_hSIRT3: NovaScreen (NVS) Enzymatic Assay for human Sirtuin 3 (SIRT3) (AID 2283222)
Records with an inconclusive call do not appear. Calls of active or inactive are those of the source. How the source made its calls: active means hit-call score of the fitted dose curve at least 0.9, where 1 is the maximum; inconclusive means response in the unintended direction; inactive means score below 0.9.
Outcomes: T = active, F = inactive

[
  {
    "compound string": "NC(=O)c1nc(-c2cccc(-c3cc(F)ccc3OCC(F)(F)C(F)(F)F)c2)n[nH]1",
    "cat": "F"
  },
  {
    "compound string": "O=C(Nc1ccc(Cl)cc1)Nc1ccc(Cl)c(Cl)c1",
    "cat": "F"
  },
  {
    "compound string": "CCN(CC)C(=O)c1cc(S(=O)(=O)Cc2ccccc2)c(N2CCC(c3ccccc3)CC2)cc1N(CC)CCN(C)C",
    "cat": "T"
  },
  {
    "compound string": "Cc1oc2c(NC(=O)c3c(Cl)cccc3Cl)cccc2c1C(C)(C)O",
    "cat": "F"
  },
  {
    "compound string": "Cc1occc1C(=O)Nc1ccc(C(=O)N2CCC(F)(F)/C(=C\\C(=O)N3CCC(N4CCCCC4)CC3)c3ccccc32)cc1",
    "cat": "F"
  },
  {
    "compound string": "O=C1c2ccccc2C(=O)N1CCc1noc(-c2ccc(CN3CCCCCC3)s2)n1",
    "cat": "F"
  }
]

###

Assay: CEETOX_H295R_OHPROG: CeeTox H295R High-throughput Steroidogenesis Assay for OH-Progesterone (OHPROG) (AID 2283435);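 as to AC50: human adrenal H295R cells primed 48 h with 10 µM forskolin; 17alpha-hydroxyprogesterone secreted into medium measured by HPLC-MS/MS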
Conditions: actives raise or lower the signal
Calls of active or inactive are those of the source. How the source made its calls: active means hit-call score of the fitted dose curve at least 0.9, where 1 is the maximum; inactive means score below 0.9.

[
  {
    "molecule": "Cc1c2ccccc2c(C)c2c1ccc1ccccc12",
    "AC50": "inactive"
  },
  {
    "molecule": "OC12N=C(c3ccccc3)SC1Cc1cc(Cl)ccc12 (stereo not given)",
    "AC50": "inactive"
  },
  {
    "molecule": "O=C(O)Cn1c(=O)n(Cc2ccc(Br)cc2F)c(=O)c2ccc(Cl)cc21",
    "AC50": "inactive"
  },
  {
    "molecule": "CC(=O)N1CCN(c2ccc(OC[C@H]3CO[C@](Cn4ccnc4)(c4ccc(Cl)cc4Cl)O3)cc2)CC1",
    "AC50": "0.49 µM (active)"
  },
  {
    "molecule": "Clc1cc(Cl)c2c(c1)N=C1CCCCCN1C2",
    "AC50": "inactive"
  },
  {
    "molecule": "O=C1CCC(C2CCCCC2)CC1",
    "AC50": "76.8 µM (active)"
  },
  {
    "molecule": "Cc1ccc2oc(CN(Cc3ccccc3)C(=O)Nc3c(F)cc(F)cc3F)c(-c3ccc(Cl)cc3)c2c1",
    "AC50": "4.83 µM (active)"
  },
  {
    "molecule": "O=C1c2ccccc2C(=O)N1CCc1noc(-c2ccc(CN3CCCCCC3)s2)n1",
    "AC50": "inactive"
  },
  {
    "molecule": "CC(C)(c1cc(Br)c(O)c(Br)c1)c1cc(Br)c(O)c(Br)c1",
    "AC50": "4.41 µM (active)"
  },
  {
    "molecule": "Cc1cc2c(cc1C(F)(F)F)N(C(=O)Nc1ccc(Oc3cccnc3C)nc1)CC2",
    "AC50": "0.591 µM (active)"
  },
  {
    "molecule": "Cc1oc2c(NC(=O)c3c(Cl)cccc3Cl)cccc2c1C(C)(C)O",
    "AC50": "3.07 µM (active)"
  },
  {
    "molecule": "CCCCOC(=O)c1ccc(O)cc1",
    "AC50": "5 µM (active)"
  },
  {
    "molecule": "CN1C(=O)N(c2ccccc2Br)Cc2cnc(Nc3ccc4c(c3)OCC(CO)O4)nc21 (stereo not given)",
    "AC50": "inactive"
  },
  {
    "molecule": "CCCCCCCCN(C)CCCCCCCC",
    "AC50": "50 µM (active)"
  },
  {
    "molecule": "O=C(Nc1ccc(Cl)cc1)Nc1ccc(Cl)c(Cl)c1",
    "AC50": "0.418 µM (active)"
  }
]

###

Experiment: BSK_SAg_Proliferation: Cell Proliferation Assessment in the BioMAP Diversity Plus: SAg Assay (AID 2283095);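 also: relative cell number as total protein by SRB absorbance in sub-confluent culture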
Settings: primary human HUVEC with PBMC
Activity calls are given as the source filed them. How the source made its calls: active means hit-call score of the fitted dose curve at least 0.9, where 1 is the maximum; inactive means score below 0.9.
Outcomes: 1 (yes) = active, 0 (no) = inactive

[
  {
    "compound": "c1ccc(C[n+]2cccc3ccccc32)cc1",
    "cat": "0 (no)"
  },
  {
    "compound": "CCCOC(=O)c1cc(O)c(O)c(O)c1",
    "cat": "1 (yes)"
  },
  {
    "compound": "CC(C)(O)c1ccc(CNC(=O)c2cccnc2Oc2ccc3nonc3c2)cc1",
    "cat": "0 (no)"
  },
  {
    "compound": "Cc1cc(F)ccc1-c1cc(N2CC[C@@H](O)[C@H]2CO)ncc1N(C)C(=O)C(C)(C)c1cc(C(F)(F)F)cc(C(F)(F)F)c1",
    "cat": "1 (yes)"
  },
  {
    "compound": "O=c1c(-c2ccc(O)cc2)coc2cc(O)cc(O)c12",
    "cat": "1 (yes)"
  },
  {
    "compound": "CCCCCCCCCCCO",
    "cat": "1 (yes)"
  },
  {
    "compound": "Cc1cn([C@H]2C[C@H](N=[N+]=[N-])[C@@H](CO)O2)c(=O)[nH]c1=O",
    "cat": "0 (no)"
  },
  {
    "compound": "CCO[Si](CCCNC(N)=O)(OCC)OCC",
    "cat": "0 (no)"
  },
  {
    "compound": "O=C(O)c1ccccc1-n1cc(C(=O)O)c(=O)c2cc(Nc3c(F)cc(F)cc3Cl)c(Cl)cc21",
    "cat": "0 (no)"
  },
  {
    "compound": "CCCCCCCCOC(=O)c1cc(O)c(O)c(O)c1",
    "cat": "1 (yes)"
  },
  {
    "compound": "Clc1cc(Cl)c2c(c1)N=C1CCCCCN1C2",
    "cat": "0 (no)"
  },
  {
    "compound": "CC(O)CC(C)(C)O (centres undefined)",
    "cat": "0 (no)"
  },
  {
    "compound": "Cc1ccc2oc(CN(Cc3ccccc3)C(=O)Nc3c(F)cc(F)cc3F)c(-c3ccc(Cl)cc3)c2c1",
    "cat": "1 (yes)"
  },
  {
    "compound": "OC12N=C(c3ccccc3)SC1Cc1cc(Cl)ccc12 (centres undefined)",
    "cat": "1 (yes)"
  },
  {
    "compound": "CC1=CC(=O)/C(=C(/C)O)C(=O)O1",
    "cat": "0 (no)"
  },
  {
    "compound": "O=CCCCC=O",
    "cat": "1 (yes)"
  },
  {
    "compound": "O=C1O[C@H]([C@@H](O)CO)C(O)=C1O",
    "cat": "0 (no)"
  },
  {
    "compound": "NCc1cccc(C2CCN(C(=O)c3ccc(C#Cc4ccccc4F)o3)CC2)c1",
    "cat": "1 (yes)"
  },
  {
    "compound": "Cc1ccc(C(C)C)cc1",
    "cat": "0 (no)"
  },
  {
    "compound": "O=c1[nH]sc2ccccc12",
    "cat": "1 (yes)"
  },
  {
    "compound": "CCCCCCCC[Si](OCC)(OCC)OCC",
    "cat": "0 (no)"
  },
  {
    "compound": "O=C=NCCCCCCN=C=O",
    "cat": "1 (yes)"
  },
  {
    "compound": "COCC(C)OCC(C)OCC(C)O (centres undefined)",
    "cat": "0 (no)"
  },
  {
    "compound": "CC(=O)N1CCN(c2ccc(OC[C@H]3CO[C@](Cn4ccnc4)(c4ccc(Cl)cc4Cl)O3)cc2)CC1",
    "cat": "1 (yes)"
  }
]
